Organism: Mus musculus
Assay: Modulation of mouse gamma secretase assessed as reduction in Abeta42 production
Endpoint: fIC50 (nM)
Write the answer as a number in nM, unit excluded.

Take a look at these entries with their results.
Cc1nnc(N2C[C@H]3CC[C@@H](C2)[C@@H]3Nc2nc3c(O[C@@H](C)C(F)(F)F)ccc(C(F)(F)F)n3n2)o1 :: 14
Cc1cc(N2C[C@H]3CC[C@@H](C2)[C@@H]3Nc2nc3c(OCC(F)(F)F)cccn3n2)sn1 :: 3
Cc1cc(N2C[C@H]3CC[C@@H](C2)[C@@H]3Nc2nc3c(OCC(F)F)ccc(C(F)(F)F)n3n2)ncn1 :: 7
Cc1nsc(N2CC3CCC(C2)C3Nc2nc3c(-c4ccc(F)c(F)c4F)cccn3n2)n1 (stereo unspecified) :: 0.9
Cc1nsc(N2CC[C@@H](Nc3nc4c(-c5ccc(F)c(F)c5F)cccn4n3)C(F)(F)C2)n1 :: 2.3

Please find the next molecule below.
Inquiry: Reported fIC50 for `Cc1nsc(N2C[C@H]3CC[C@@H](C2)[C@@H]3Nc2nc3c(OCC(F)(F)F)cccn3n2)n1` : what is it?
Reply text: 5

* * *

Target: UniProt:Q9UBF8
Sequence (Q9UBF8 whole entry): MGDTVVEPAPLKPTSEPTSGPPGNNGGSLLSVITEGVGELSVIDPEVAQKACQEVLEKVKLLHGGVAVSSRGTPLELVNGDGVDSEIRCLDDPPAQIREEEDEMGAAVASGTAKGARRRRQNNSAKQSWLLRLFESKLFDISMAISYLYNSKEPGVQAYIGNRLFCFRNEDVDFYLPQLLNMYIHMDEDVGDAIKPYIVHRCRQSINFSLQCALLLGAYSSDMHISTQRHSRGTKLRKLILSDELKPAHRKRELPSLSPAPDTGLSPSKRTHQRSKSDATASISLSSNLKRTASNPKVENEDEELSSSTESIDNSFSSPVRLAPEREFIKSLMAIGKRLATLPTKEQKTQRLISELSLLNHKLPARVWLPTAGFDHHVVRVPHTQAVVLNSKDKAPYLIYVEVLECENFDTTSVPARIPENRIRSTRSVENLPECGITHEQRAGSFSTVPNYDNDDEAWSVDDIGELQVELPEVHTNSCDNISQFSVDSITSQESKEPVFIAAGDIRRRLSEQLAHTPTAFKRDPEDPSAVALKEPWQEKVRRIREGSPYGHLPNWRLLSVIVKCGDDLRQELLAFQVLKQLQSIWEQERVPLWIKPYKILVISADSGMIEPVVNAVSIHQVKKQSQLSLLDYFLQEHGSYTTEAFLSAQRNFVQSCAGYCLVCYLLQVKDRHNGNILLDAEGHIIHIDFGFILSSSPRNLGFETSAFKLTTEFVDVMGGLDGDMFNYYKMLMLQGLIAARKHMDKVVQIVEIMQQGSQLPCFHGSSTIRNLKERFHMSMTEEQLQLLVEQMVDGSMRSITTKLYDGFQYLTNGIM
Kd values by entry
Provide only the numeric value, understood in µM.

Use these answered entries as a reference point.
Cc1nsc(N2CC3CCC(C2)C3Nc2nc3c(-c4ccc(F)c(F)c4F)cccn3n2)n1 (stereo not given) :: 0.12
Cc1cc(N2C[C@H]3CC[C@@H](C2)[C@@H]3Nc2nc3c(OCC(F)(F)F)cccn3n2)sn1 :: 0.12

Inquiry: Requested read-out: Kd. Entry: `Cc1cc(N2C[C@H]3CC[C@@H](C2)[C@@H]3Nc2nc3c(OCC(F)F)ccc(C(F)(F)F)n3n2)ncn1`
Reply text: 23

* * *

Experiment: Volume of distribution at steady state in minipig at 1 mg/kg, iv bolus measured over 240 hrs
Assay type: ADME, organism-based, Sus scrofa domesticus
Conditions: pig, in vivo, read-out: Vdss
Endpoint: Vd (L/kg)
Only the number, expressed in L/kg, is required.

Inquiry: Item `Cc1nnc(N2C[C@H]3CC[C@@H](C2)[C@@H]3Nc2nc3c(O[C@@H](C)C(F)(F)F)ccc(C(F)(F)F)n3n2)o1` has what recorded Vd?
Reply text: 0.83

* * *

Entries annotated with measured fraction unbound
Test: Fraction unbound in 10% fetal calf serum
Type: ADME, cell-free, Bos taurus
Details: cattle
Give the figure by itself; no unit, no explanation.

Cc1nsc(N2CC[C@@H](Nc3nc4c(-c5ccc(F)c(F)c5F)cccn4n3)C(F)(F)C2)n1 :: 0.06

Inquiry: Which fraction unbound is listed for Cc1nsc(N2CC3CCC(C2)C3Nc2nc3c(-c4ccc(F)c(F)c4F)cccn3n2)n1 (configuration not stated) ?
Reply text: 0.22

* * *

Listed here: items and their measured pIC50.
Target: Voltage-gated inwardly rectifying potassium channel KCNH2 (Homo sapiens, UniProt Q12809)
Sequence (Q12809 whole entry): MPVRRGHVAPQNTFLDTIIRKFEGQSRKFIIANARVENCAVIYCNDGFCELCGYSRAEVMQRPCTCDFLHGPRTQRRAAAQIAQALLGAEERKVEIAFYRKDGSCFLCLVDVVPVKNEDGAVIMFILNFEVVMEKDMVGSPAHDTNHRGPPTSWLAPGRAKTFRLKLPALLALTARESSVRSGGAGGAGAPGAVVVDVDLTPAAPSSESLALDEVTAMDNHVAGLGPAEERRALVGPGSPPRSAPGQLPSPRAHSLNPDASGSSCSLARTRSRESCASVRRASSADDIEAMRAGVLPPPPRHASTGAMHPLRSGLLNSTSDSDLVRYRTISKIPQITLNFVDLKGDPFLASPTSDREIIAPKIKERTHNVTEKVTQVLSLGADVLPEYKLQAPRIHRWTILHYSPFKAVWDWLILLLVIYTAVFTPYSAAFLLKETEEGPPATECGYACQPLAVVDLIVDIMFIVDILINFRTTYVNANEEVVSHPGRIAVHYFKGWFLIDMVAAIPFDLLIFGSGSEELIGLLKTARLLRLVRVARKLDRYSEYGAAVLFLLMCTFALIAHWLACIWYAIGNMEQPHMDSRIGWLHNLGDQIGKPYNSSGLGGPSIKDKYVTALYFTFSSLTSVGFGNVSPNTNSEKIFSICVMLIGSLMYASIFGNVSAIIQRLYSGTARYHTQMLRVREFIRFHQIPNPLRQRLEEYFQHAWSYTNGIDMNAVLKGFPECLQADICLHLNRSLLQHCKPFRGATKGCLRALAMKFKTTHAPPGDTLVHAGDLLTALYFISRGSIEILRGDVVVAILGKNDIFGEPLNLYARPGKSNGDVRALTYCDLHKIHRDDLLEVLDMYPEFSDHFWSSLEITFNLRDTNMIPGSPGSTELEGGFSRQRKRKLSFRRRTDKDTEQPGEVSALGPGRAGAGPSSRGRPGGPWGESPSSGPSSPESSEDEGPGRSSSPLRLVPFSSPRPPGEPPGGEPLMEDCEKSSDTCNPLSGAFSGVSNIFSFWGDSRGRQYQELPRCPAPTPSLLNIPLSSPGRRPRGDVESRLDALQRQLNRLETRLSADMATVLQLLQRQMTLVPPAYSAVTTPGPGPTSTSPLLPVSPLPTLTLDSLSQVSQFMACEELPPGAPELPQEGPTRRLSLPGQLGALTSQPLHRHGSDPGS
// field semantics: pIC50 = negative decimal log of concentration (mol/L)

Cc1noc(N2C[C@H]3CC[C@@H](C2)[C@@H]3Nc2nc3c(OCC(F)(F)F)ccc(C(F)(F)F)n3n2)n1 :: 5.06
Cc1cc(N2C[C@H]3CC[C@@H](C2)[C@@H]3Nc2nc3c(OCC(F)(F)F)cccn3n2)sn1 :: 5.54

Proceeding to the next compound to report its pIC50.
Inquiry: What value of measured pIC50 is listed for `Cc1cc(N2C[C@H]3CC[C@@H](C2)[C@@H]3Nc2nc3c(OCC(F)F)ccc(C(F)(F)F)n3n2)ncn1` ?
Reply text: 5.35

Value source: ChEMBL document CHEMBL4619803
